# Test system: PDC KRAS tumor spheroids with HUVEC/MSC, viability
# assay remarks: Anticancer human tumor 349418-098-R-PDC patient-derived lung adenocarcinoma cell line growth inhibition [KRAS2]
# recorded conditions: second compound 0.1 µM; first compound 10 µM; stronger effect = lower value
Kindly supply the reported viability, T/C values for the records listed here.
Give the quantity in %, number only.

viability, T/C for COC(=O)c1ccc2c(C(=Nc3ccc(N(C)C(=O)CN4CCN(C)CC4)cc3)c3ccccc3)c(O)[nH]c2c1 + COc1cc2nc(C)nc(NC(C)c3cc(N)cc(C(F)(F)F)c3)c2cc1OC1CCOC1 ?
15.6

viability, T/C for COC(=O)c1ccc2c(C(=Nc3ccc(N(C)C(=O)CN4CCN(C)CC4)cc3)c3ccccc3)c(O)[nH]c2c1 + CNCc1ccccc1-c1csc(C(C)Nc2nc(C)nc3cc(OC)c(OC)cc23)c1 ?
12.9

viability, T/C for CC1(C)CCC(CN2CCN(c3ccc(C(=O)NS(=O)(=O)c4ccc(NCC5CCOCC5)c([N+](=O)[O-])c4)c(Oc4cnc5[nH]ccc5c4)c3)CC2)=C(c2ccc(Cl)cc2)C1 + C=CC(=O)N1CCN(c2nc(OCC3CCCN3C)nc3c2CCN(c2cccc4cccc(C)c24)C3)CC1CC#N ?
4.13

viability, T/C for CCNC(=O)CC1N=C(c2ccc(Cl)cc2)c2cc(OC)ccc2-n2c(C)nnc21 (stereo not given) + CNCc1ccccc1-c1csc(C(C)Nc2nc(C)nc3cc(OC)c(OC)cc23)c1 ?
1.11

viability, T/C for COc1cc2nccc(Oc3ccc(NC(=O)C4(C(=O)Nc5ccc(F)cc5)CC4)cc3)c2cc1OC + CC1OCC2(CCN(c3cnc(Sc4ccnc(N)c4Cl)c(N)n3)CC2)C1N ?
21.2

====

Kindly supply the reported IC50 values for the records listed here.
# Tested on: PDC KRAS tumor spheroids with HUVEC/MSC, viability
# assay remarks: Anticancer human tumor 349418-098-R-PDC cell line growth inhibition [KRAS2];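 further: spheroids exposed to compounds for seven days before readout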
# recorded conditions: curve of first compound; second compound 10 µM

IC50 for CC1OCC2(CCN(c3cnc(Sc4ccnc(N)c4Cl)c(N)n3)CC2)C1N (centres undefined) + COc1cc2nc(C)nc(NC(C)c3cc(N)cc(C(F)(F)F)c3)c2cc1OC1CCOC1 ?
< 31.6 nM

IC50 for COC(=O)c1ccc2c(C(=Nc3ccc(N(C)C(=O)CN4CCN(C)CC4)cc3)c3ccccc3)c(O)[nH]c2c1 + COc1cc2nc(C)nc(NC(C)c3cc(N)cc(C(F)(F)F)c3)c2cc1OC1CCOC1 ?
< 31.6 nM

IC50 for CC1COCCN1c1cc(-c2ccnn2C)c2ccnc(-c3ccn[nH]3)c2n1 (centres undefined) + COc1cc2nc(C)nc(NC(C)c3cc(N)cc(C(F)(F)F)c3)c2cc1OC1CCOC1 ?
< 10 nM

IC50 for CCN1CCN(Cc2ccc(Nc3ncc(F)c(-c4cc(F)c5nc(C)n(C(C)C)c5c4)n3)nc2)CC1 + CNCc1ccccc1-c1csc(C(C)Nc2nc(C)nc3cc(OC)c(OC)cc23)c1 ?
< 3.16 nM

IC50 for COc1cc2nccc(Oc3ccc(NC(=O)C4(C(=O)Nc5ccc(F)cc5)CC4)cc3)c2cc1OC + CNCc1ccccc1-c1csc(C(C)Nc2nc(C)nc3cc(OC)c(OC)cc23)c1 ?
< 31.6 nM

IC50 for COc1cc2nccc(Oc3ccc(NC(=O)C4(C(=O)Nc5ccc(F)cc5)CC4)cc3)c2cc1OC + COc1cc2nc(C)nc(NC(C)c3cc(N)cc(C(F)(F)F)c3)c2cc1OC1CCOC1 ?
< 31.6 nM

IC50 for CCNC(=O)CC1N=C(c2ccc(Cl)cc2)c2cc(OC)ccc2-n2c(C)nnc21 (centres undefined) + CC1OCC2(CCN(c3cnc(Sc4ccnc(N)c4Cl)c(N)n3)CC2)C1N ?
196 nM

IC50 for CC(=O)OC12COC1CC(O)C1(C)C(=O)C(O)C3=C(C)C(OC(=O)C(O)C(NC(=O)OC(C)(C)C)c4ccccc4)CC(O)(C(OC(=O)c4ccccc4)C21)C3(C)C (centres undefined) + CNCc1ccccc1-c1csc(C(C)Nc2nc(C)nc3cc(OC)c(OC)cc23)c1 ?
< 10 nM

IC50 for Cn1ncnc1[C@H]1c2n[nH]c(=O)c3cc(F)cc(c23)N[C@@H]1c1ccc(F)cc1 + C=CC(=O)N1CCN(c2nc(=O)n(-c3c(C)ccnc3C(C)C)c3nc(-c4c(O)cccc4F)c(F)cc23)C(C)C1 ?
< 0.316 nM

IC50 for CC(C)n1nc(-c2ccc3oc(N)nc3c2)c2c(N)ncnc21 + C=CC(=O)N1CCN(c2nc(=O)n(-c3c(C)ccnc3C(C)C)c3nc(-c4c(O)cccc4F)c(F)cc23)C(C)C1 ?
< 0.316 nM

IC50 for COc1cc(Nc2ncc3c(n2)-c2ccc(Cl)cc2C(c2c(F)cccc2OC)=NC3)ccc1C(=O)O + C=CC(=O)N1CCN(c2nc(=O)n(-c3c(C)ccnc3C(C)C)c3nc(-c4c(O)cccc4F)c(F)cc23)C(C)C1 ?
< 31.6 nM

IC50 for Cn1ncnc1[C@H]1c2n[nH]c(=O)c3cc(F)cc(c23)N[C@@H]1c1ccc(F)cc1 + COc1cc2nc(C)nc(NC(C)c3cc(N)cc(C(F)(F)F)c3)c2cc1OC1CCOC1 ?
< 0.316 nM

IC50 for CN(C)C/C=C/C(=O)Nc1cc2c(Nc3ccc(F)c(Cl)c3)ncnc2cc1O[C@H]1CCOC1 + COc1cc2nc(C)nc(NC(C)c3cc(N)cc(C(F)(F)F)c3)c2cc1OC1CCOC1 ?
> 100 nM

IC50 for COC(=O)c1ccc2c(C(=Nc3ccc(N(C)C(=O)CN4CCN(C)CC4)cc3)c3ccccc3)c(O)[nH]c2c1 + CC1OCC2(CCN(c3cnc(Sc4ccnc(N)c4Cl)c(N)n3)CC2)C1N ?
600 nM

====

# Tested on: PDC KRAS tumor spheroids with HUVEC/MSC, viability
# assay remarks: Anticancer human tumor 349418-098-R-PDC cell line growth inhibition [KRAS2]; active = viability on the fitted dose curve at most 10% of control; inactive = the rest;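 further: spheroids exposed to compounds for seven days before readout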
# recorded conditions: second compound 1 µM; first compound 10 µM
Respond using exactly one of the listed classes: active, inactive

What is the recorded call for this compound in the test? COC(=O)c1ccc2c(C(=Nc3ccc(N(C)C(=O)CN4CCN(C)CC4)cc3)c3ccccc3)c(O)[nH]c2c1 + CC1OCC2(CCN(c3cnc(Sc4ccnc(N)c4Cl)c(N)n3)CC2)C1N
active

What is the recorded call for this compound in the test? COc1cc(Nc2ncc3c(n2)-c2ccc(Cl)cc2C(c2c(F)cccc2OC)=NC3)ccc1C(=O)O + CNCc1ccccc1-c1csc(C(C)Nc2nc(C)nc3cc(OC)c(OC)cc23)c1
inactive

What is the recorded call for this compound in the test? COC(=O)c1ccc2c(C(=Nc3ccc(N(C)C(=O)CN4CCN(C)CC4)cc3)c3ccccc3)c(O)[nH]c2c1 + C=CC(=O)N1CCN(c2nc(OCC3CCCN3C)nc3c2CCN(c2cccc4cccc(C)c24)C3)CC1CC#N
active

What is the recorded call for this compound in the test? COc1cc(Nc2ncc3c(n2)-c2ccc(Cl)cc2C(c2c(F)cccc2OC)=NC3)ccc1C(=O)O + COc1cc2nc(C)nc(NC(C)c3cc(N)cc(C(F)(F)F)c3)c2cc1OC1CCOC1
inactive

What is the recorded call for this compound in the test? Cn1nccc1Nc1nccc(-c2cc3c(s2)C(C)(C)N(CCN2CCOCC2)C3=O)n1 + C=CC(=O)N1CCN(c2nc(=O)n(-c3c(C)ccnc3C(C)C)c3nc(-c4c(O)cccc4F)c(F)cc23)C(C)C1
active

What is the recorded call for this compound in the test? CC1(C)CCC(CN2CCN(c3ccc(C(=O)NS(=O)(=O)c4ccc(NCC5CCOCC5)c([N+](=O)[O-])c4)c(Oc4cnc5[nH]ccc5c4)c3)CC2)=C(c2ccc(Cl)cc2)C1 + C=CC(=O)N1CCN(c2nc(OCC3CCCN3C)nc3c2CCN(c2cccc4cccc(C)c24)C3)CC1CC#N
active

What is the recorded call for this compound in the test? COc1cc2nccc(Oc3ccc(NC(=O)C4(C(=O)Nc5ccc(F)cc5)CC4)cc3)c2cc1OC + COc1cc2nc(C)nc(NC(C)c3cc(N)cc(C(F)(F)F)c3)c2cc1OC1CCOC1
inactive

What is the recorded call for this compound in the test? COc1cc(Nc2ncc3c(n2)-c2ccc(Cl)cc2C(c2c(F)cccc2OC)=NC3)ccc1C(=O)O + C=CC(=O)N1CCN(c2nc(OCC3CCCN3C)nc3c2CCN(c2cccc4cccc(C)c24)C3)CC1CC#N
inactive

What is the recorded call for this compound in the test? CC(C)NCC(C(=O)N1CCN(c2ncnc3c2C(C)CC3O)CC1)c1ccc(Cl)cc1 (stereo not given) + CC1OCC2(CCN(c3cnc(Sc4ccnc(N)c4Cl)c(N)n3)CC2)C1N
active

What is the recorded call for this compound in the test? CC1(C)CCC(CN2CCN(c3ccc(C(=O)NS(=O)(=O)c4ccc(NCC5CCOCC5)c([N+](=O)[O-])c4)c(Oc4cnc5[nH]ccc5c4)c3)CC2)=C(c2ccc(Cl)cc2)C1 + COc1cc2nc(C)nc(NC(C)c3cc(N)cc(C(F)(F)F)c3)c2cc1OC1CCOC1
active

What is the recorded call for this compound in the test? CC1(C)CCC(CN2CCN(c3ccc(C(=O)NS(=O)(=O)c4ccc(NCC5CCOCC5)c([N+](=O)[O-])c4)c(Oc4cnc5[nH]ccc5c4)c3)CC2)=C(c2ccc(Cl)cc2)C1 + CC1OCC2(CCN(c3cnc(Sc4ccnc(N)c4Cl)c(N)n3)CC2)C1N
active

What is the recorded call for this compound in the test? O=C(c1cc(Cc2n[nH]c(=O)c3ccccc23)ccc1F)N1CCN(C(=O)C2CC2)CC1 + COc1cc2nc(C)nc(NC(C)c3cc(N)cc(C(F)(F)F)c3)c2cc1OC1CCOC1
inactive

What is the recorded call for this compound in the test? Cn1nccc1Nc1nccc(-c2cc3c(s2)C(C)(C)N(CCN2CCOCC2)C3=O)n1 + CNCc1ccccc1-c1csc(C(C)Nc2nc(C)nc3cc(OC)c(OC)cc23)c1
active

What is the recorded call for this compound in the test? CCNC(=O)CC1N=C(c2ccc(Cl)cc2)c2cc(OC)ccc2-n2c(C)nnc21 (stereo not given) + CNCc1ccccc1-c1csc(C(C)Nc2nc(C)nc3cc(OC)c(OC)cc23)c1
active

What is the recorded call for this compound in the test? COc1cc2nccc(Oc3ccc(NC(=O)C4(C(=O)Nc5ccc(F)cc5)CC4)cc3)c2cc1OC + C=CC(=O)N1CCN(c2nc(=O)n(-c3c(C)ccnc3C(C)C)c3nc(-c4c(O)cccc4F)c(F)cc23)C(C)C1
inactive

What is the recorded call for this compound in the test? COc1cc2nccc(Oc3ccc(NC(=O)C4(C(=O)Nc5ccc(F)cc5)CC4)cc3)c2cc1OC + C=CC(=O)N1CCN(c2nc(OCC3CCCN3C)nc3c2CCN(c2cccc4cccc(C)c24)C3)CC1CC#N
active

What is the recorded call for this compound in the test? CC(C)NCC(C(=O)N1CCN(c2ncnc3c2C(C)CC3O)CC1)c1ccc(Cl)cc1 (stereo not given) + C=CC(=O)N1CCN(c2nc(OCC3CCCN3C)nc3c2CCN(c2cccc4cccc(C)c24)C3)CC1CC#N
active

What is the recorded call for this compound in the test? COc1cc(Nc2ncc3c(n2)-c2ccc(Cl)cc2C(c2c(F)cccc2OC)=NC3)ccc1C(=O)O + C=CC(=O)N1CCN(c2nc(=O)n(-c3c(C)ccnc3C(C)C)c3nc(-c4c(O)cccc4F)c(F)cc23)C(C)C1
inactive

What is the recorded call for this compound in the test? CCNC(=O)CC1N=C(c2ccc(Cl)cc2)c2cc(OC)ccc2-n2c(C)nnc21 (stereo not given) + CC1OCC2(CCN(c3cnc(Sc4ccnc(N)c4Cl)c(N)n3)CC2)C1N
active

What is the recorded call for this compound in the test? Cn1nccc1Nc1nccc(-c2cc3c(s2)C(C)(C)N(CCN2CCOCC2)C3=O)n1 + COc1cc2nc(C)nc(NC(C)c3cc(N)cc(C(F)(F)F)c3)c2cc1OC1CCOC1
active
